System: CCRF-CEM
Test: NCI tumour cell line growth inhibition, 48 h
Activity calls are given as the source filed them. Cut-off read from the data, not from the text of the source: active = GI50 up to about 1.1 µM and inactive = higher.
Quantity Name: GI50

Consider the reported GI50 for these compounds:
INSERT INTO assay_data (compound, observed_result) VALUES
  ('C(=N\Nc1ccc(-c2nc3ccccc3[nH]2)cc1)/c1c(-c2ccc(Cc3ccccc3)cc2)[nH]c2ccccc12', '5.06 µM (inactive)'),
  ('CCOC(=O)c1c(N)nn2c1cc1cccccc12', '43.5 µM (inactive)'),
  ('CC(=O)c1c(-c2ccc(Cl)cc2)c(C#N)c(=S)n(C2OC(CO)C(O)C(O)C2O)c1C (stereo not given)', '25.9 µM (inactive)'),
  ('FC(F)(F)c1ccc(C2=N/S(c3ccccc3)=N\C(c3ccc(C(F)(F)F)cc3)=N/S(c3ccccc3)=N\2)cc1 (stereo not given)', '> 100 µM (inactive)'),
  ('C=C[C@]1(C)CCC2=C(CCC3C2(C)CCC[C@]3(C)CO)C1 (stereo not given in full)', '33 µM (inactive)'),
  ('O=CN1CCN(C=S)CC1', '> 100 µM (inactive)'),
  ('Cc1cc(-c2nc3cc(O)ccc3s2)ccc1N', '27.7 µM (inactive)'),
  ('N#Cc1ccccc1OCCOc1ccccc1C#N', '> 100 µM (inactive)');

Request the reported GI50 associated with CNC(=O)C1(C#N)C(c2ccccc2)C(C#N)(C(=O)NC)C1c1ccccc1 (stereo not given)
> 100 µM (inactive)

GI50 for CSC(C1c2ccccc2N(c2ccc(C)cc2)C2=NC(=O)N(C)C(=O)C21Cl)S(=O)(=O)c1ccc(C)cc1 (stereo not given) ?
10.8 µM (inactive)
